Experiment: Maximal solubility of the synthetic peptides in water and in DMSO (sheet Peptide_mixes)
Type: physicochemical
Settings: in water; number before the bracket in the cell
No end group written: not given here.
MEASUREMENT TYPE: max solve water

> print(dat)
                            substance  measurement.type  endpoint.value
 1                FPPGFHRP-NH2 [HRPa]   max solve water         5 mg/mL
 2                 YPPLNTV-NH2 [NTVa]   max solve water         5 mg/mL
 3         NPPIDLGPAYFHIR-NH2 [HIRa5]   max solve water         5 mg/mL
 4                 GPPGLW-NH2 [GLWa3]   max solve water         5 mg/mL
 5             GPPPIYLPVRP-NH2 [RHa3]   max solve water   10 (10) mg/ml
 6             GPPMIKIPVRH-NH2 [VRHa]   max solve water   10 (10) mg/ml
 7       YPPFLELGQPSYFHIR-NH2 [HIRa2]   max solve water         5 mg/mL
 8        GPRGGREVNLEGPRG-NH2 [PRGa2]   max solve water     5 (5) mg/ml
 9                      DSSPPQW [QW2]   max solve water         5 mg/mL
10             EIQPGNMKVWSDPF [PNX14]   max solve water         5 mg/mL
11              IPPQGFRFSQW-NH2 [QWa]   max solve water         0 mg/mL
12  RSNRVVIHTGANPTMAPLRIPF-NH2 [IPFa]   max solve water         5 mg/mL
13                LPPRFGGQI-NH2 [QIa]   max solve water         5 mg/mL
14               SPKPPGLW-NH2 [GLWa5]   max solve water   10 (10) mg/ml
15      GYYRDNIQETRQYLDPRP-NH2 [RHa4]   max solve water         5 mg/mL
16       APPGNGEGEAGFIPWFS-NH2 [WFSa]   max solve water         0 mg/mL
17               SPPQWKLDSSPPQW [QW3]   max solve water         5 mg/mL
18                  TPPSNI-NH2 [SNIa]   max solve water         2 mg/mL
19              SPWSYSLRP-NH2 [LRPa2]   max solve water   10 (10) mg/ml
20              SPWSCSLRP-NH2 [LRPa1]   max solve water   10 (10) mg/ml
21             IPPQGLRFNQW-NH2 [QWa2]   max solve water         5 mg/mL
22             NPPQPPFRIPI-NH2 [IPIa]   max solve water         5 mg/mL
